# TGT: α1G T-type calcium channel (Homo sapiens, UniProt O43497)
# Construct: The cell line KCTC 10519BP is named only for the FDSS6000 screen
# Sequence (O43497 whole entry): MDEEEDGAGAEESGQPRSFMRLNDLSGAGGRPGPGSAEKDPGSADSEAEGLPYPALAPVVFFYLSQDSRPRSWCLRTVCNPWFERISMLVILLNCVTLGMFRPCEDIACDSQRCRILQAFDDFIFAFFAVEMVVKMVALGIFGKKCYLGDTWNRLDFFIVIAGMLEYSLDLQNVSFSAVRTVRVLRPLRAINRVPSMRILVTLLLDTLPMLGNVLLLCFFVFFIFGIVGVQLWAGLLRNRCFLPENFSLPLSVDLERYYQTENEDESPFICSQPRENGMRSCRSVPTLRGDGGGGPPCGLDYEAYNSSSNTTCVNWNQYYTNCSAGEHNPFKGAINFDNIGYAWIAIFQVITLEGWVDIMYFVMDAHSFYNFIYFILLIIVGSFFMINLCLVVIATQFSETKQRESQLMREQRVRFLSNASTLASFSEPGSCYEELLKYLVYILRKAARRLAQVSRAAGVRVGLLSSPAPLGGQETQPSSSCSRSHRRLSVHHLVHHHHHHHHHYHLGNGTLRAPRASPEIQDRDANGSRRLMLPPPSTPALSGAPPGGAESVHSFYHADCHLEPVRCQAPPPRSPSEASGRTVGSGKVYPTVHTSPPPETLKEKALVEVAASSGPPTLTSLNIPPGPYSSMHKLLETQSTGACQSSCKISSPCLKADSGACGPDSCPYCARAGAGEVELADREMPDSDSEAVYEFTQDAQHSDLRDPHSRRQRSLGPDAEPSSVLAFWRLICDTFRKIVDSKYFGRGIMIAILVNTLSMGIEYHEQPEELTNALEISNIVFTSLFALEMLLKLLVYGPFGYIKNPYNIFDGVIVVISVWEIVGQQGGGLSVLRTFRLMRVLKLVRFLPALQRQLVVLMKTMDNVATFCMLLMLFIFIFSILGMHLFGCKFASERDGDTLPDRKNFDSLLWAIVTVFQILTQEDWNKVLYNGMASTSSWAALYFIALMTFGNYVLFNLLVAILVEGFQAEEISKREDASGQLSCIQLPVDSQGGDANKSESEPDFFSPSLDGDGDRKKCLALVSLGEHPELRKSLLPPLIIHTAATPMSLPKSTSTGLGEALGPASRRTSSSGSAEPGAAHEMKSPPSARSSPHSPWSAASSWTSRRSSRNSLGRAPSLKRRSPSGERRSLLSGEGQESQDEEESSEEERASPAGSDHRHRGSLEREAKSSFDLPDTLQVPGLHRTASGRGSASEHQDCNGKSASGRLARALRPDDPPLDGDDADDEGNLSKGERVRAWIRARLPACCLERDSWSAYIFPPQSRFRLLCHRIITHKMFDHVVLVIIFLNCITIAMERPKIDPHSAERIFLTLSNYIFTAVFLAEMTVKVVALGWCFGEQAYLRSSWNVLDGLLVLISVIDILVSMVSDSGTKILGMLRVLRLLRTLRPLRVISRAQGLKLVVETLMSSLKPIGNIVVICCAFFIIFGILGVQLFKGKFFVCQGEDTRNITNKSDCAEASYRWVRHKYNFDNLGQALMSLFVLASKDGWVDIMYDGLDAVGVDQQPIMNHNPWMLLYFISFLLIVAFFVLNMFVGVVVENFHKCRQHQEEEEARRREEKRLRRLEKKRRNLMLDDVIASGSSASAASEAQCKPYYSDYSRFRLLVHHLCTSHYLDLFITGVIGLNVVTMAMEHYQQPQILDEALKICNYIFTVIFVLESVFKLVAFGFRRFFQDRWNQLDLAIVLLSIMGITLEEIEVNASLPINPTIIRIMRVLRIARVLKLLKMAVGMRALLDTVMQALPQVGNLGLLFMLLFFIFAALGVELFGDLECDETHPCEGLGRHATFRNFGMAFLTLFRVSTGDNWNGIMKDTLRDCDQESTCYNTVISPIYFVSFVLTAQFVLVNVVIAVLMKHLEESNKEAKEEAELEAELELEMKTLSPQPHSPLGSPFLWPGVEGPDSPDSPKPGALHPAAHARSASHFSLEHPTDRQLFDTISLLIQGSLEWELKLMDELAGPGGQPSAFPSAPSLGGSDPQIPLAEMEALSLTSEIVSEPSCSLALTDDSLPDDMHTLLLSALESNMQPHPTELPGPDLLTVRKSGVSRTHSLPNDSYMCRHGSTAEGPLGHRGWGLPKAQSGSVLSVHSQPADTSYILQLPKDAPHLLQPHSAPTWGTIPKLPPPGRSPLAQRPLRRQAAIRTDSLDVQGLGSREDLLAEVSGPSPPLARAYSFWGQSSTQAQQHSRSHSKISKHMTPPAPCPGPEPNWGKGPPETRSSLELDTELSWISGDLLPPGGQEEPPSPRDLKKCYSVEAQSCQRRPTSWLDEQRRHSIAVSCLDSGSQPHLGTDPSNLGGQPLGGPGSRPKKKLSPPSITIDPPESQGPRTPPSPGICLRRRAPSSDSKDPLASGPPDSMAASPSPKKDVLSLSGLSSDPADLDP
# PROTOCOL_SUMMARY: T-type calcium channel activity by electrophysiological whole-cell patch-clamp technique
# MEASUREMENT_SETUP: HEK293 cells stably expressing α1G T-type calcium channels, inhibition of inward peak currents, test pulse −30 mV, holding −100 mV
MEASUREMENT_KIND: IC50 (nM)

Worked examples follow.
CC(C)Cc1cc(CNC(=O)CN2CCN(c3ccccn3)CC2)nn1-c1ccccc1; 9420
CC(C)Cc1cc(CNC(=O)CN2CCN(Cc3ccc(C(F)(F)F)cc3)CC2)nn1-c1ccccc1; 1770
Cc1cc(CNC(=O)CN2CCN(C(c3ccccc3)c3ccccc3)CC2)nn1-c1ccccc1; 1830
Cc1cccc(N2CCN(CC(=O)NCc3cc(C)n(-c4ccccc4)n3)CC2)c1C; 20
Cc1cc(CNC(=O)CN2CCN(Cc3ccc(Cl)c(Cl)c3)CC2)nn1-c1ccccc1; 1420

a: CCCc1cc(CNC(=O)CN2CCN(c3ccccc3)CC2)nn1-c1ccccc1
b: Cc1cccc(N2CCN(C(=O)CNCc3cc(C)n(-c4ccccc4)n3)CC2)c1C
Return label of the item with the larger IC50. Candidates: a , b . Indicate your choice by writing its label.
a
(a: 5100 nM, b: 2060 nM)

a: Cc1ccc(N2CCN(C(=O)CNCc3cc(CC(C)C)n(-c4ccccc4)n3)CC2)c(C)c1
b: CCCc1cc(CNC(=O)CN2CCN(Cc3ccc(C(F)(F)F)cc3)CC2)nn1-c1ccccc1
c: CC(C)Cc1cc(CNC(=O)CN2CCN(c3ccccc3)CC2)nn1-c1ccccc1
d: CCCc1cc(CNC(=O)CN2CCN(Cc3ccc4c(c3)OCO4)CC2)nn1-c1ccccc1
Order these by IC50, descending, and give the full ranking. Sort and list the labels as requested.
d, c, b, a
(d: 9560 nM, c: 3540 nM, b: 1810 nM, a: 400 nM)

1: O=C(CN1CCN(c2ccccc2)CC1)NCc1cc(-c2ccco2)n(-c2ccccc2)n1
2: Cc1cc(CNC(=O)CN2CCN(Cc3cccc(C(F)(F)F)c3)CC2)nn1-c1ccccc1
3: CC(C)Cc1cc(CNCC(=O)N2CCN(Cc3ccc(Cl)c(Cl)c3)CC2)nn1-c1ccccc1
// smallest IC50 at index 0, largest at the end Respond with the label ranking, as requested.
3, 2, 1

a: Cc1cc(CNCC(=O)N2CCN(C(c3ccccc3)c3ccccc3)CC2)nn1-c1ccccc1
b: Cc1cccc(N2CCN(C(=O)CNCc3cc(CC(C)C)n(-c4ccccc4)n3)CC2)c1C
From the items above, decide which of a and b has the lower IC50 reading. Give the chosen item's label as your response.
b
(b: 360 nM, a: 3500 nM)
